# experimental.system: NR2E1 peptide/HLA-A*02:01 complex (recombinant) (human)
# method: SPR

[
  {
    "binder": "AS170036 VL1VH1-VLH98A (scFv) scFv: QSALTQPRSVSGSPGQSVTISCAGTSSDVGSENYVSWYQQHPGKAPKLMIYQVNKRASGVPDRFSGSKSGNTASLTISGLQAEDEADYYCASYRSSDANIVFGGGTKLTVLGGGGSGGGGSGGGGSEVQLVESGGGLVQPGGSLRLSCAASGFTFSSYAMSWVRQAPGKGLEWVSTINSGTGSPYYADSVKGRFTISRDNSKNTLYLQMNSLRAEDTAVYYCAKNFFDGSWFLGPPAMDYWGQGTLVTVSSHHHHHH",
    "binding result": "no binding"
  },
  {
    "binder": "AS170036 VL1VH1-VHS57Q (scFv) scFv: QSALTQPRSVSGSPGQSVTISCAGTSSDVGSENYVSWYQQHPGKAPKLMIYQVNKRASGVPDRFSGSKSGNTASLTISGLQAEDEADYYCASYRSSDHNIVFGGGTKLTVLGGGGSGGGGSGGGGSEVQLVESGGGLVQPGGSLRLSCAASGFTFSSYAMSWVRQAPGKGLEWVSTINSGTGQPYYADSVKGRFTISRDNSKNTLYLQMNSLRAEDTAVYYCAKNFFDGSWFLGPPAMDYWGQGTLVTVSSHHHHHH",
    "binding result": "no binding"
  },
  {
    "binder": "AS170036 VL1VH1-VLE32W (scFv) scFv: QSALTQPRSVSGSPGQSVTISCAGTSSDVGSWNYVSWYQQHPGKAPKLMIYQVNKRASGVPDRFSGSKSGNTASLTISGLQAEDEADYYCASYRSSDHNIVFGGGTKLTVLGGGGSGGGGSGGGGSEVQLVESGGGLVQPGGSLRLSCAASGFTFSSYAMSWVRQAPGKGLEWVSTINSGTGSPYYADSVKGRFTISRDNSKNTLYLQMNSLRAEDTAVYYCAKNFFDGSWFLGPPAMDYWGQGTLVTVSSHHHHHH",
    "binding result": "no binding"
  },
  {
    "binder": "AS170036 VL1VH1-VLH98V (scFv) scFv: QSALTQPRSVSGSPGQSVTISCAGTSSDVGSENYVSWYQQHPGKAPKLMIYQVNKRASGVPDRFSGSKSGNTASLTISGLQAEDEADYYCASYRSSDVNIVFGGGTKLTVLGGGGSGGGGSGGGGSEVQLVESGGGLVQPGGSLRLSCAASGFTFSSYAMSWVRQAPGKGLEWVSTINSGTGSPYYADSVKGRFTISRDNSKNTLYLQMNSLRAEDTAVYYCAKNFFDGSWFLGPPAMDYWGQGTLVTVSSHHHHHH",
    "binding result": "no binding"
  },
  {
    "binder": "AS170036 VL1VH1-VLH98T (scFv) scFv: QSALTQPRSVSGSPGQSVTISCAGTSSDVGSENYVSWYQQHPGKAPKLMIYQVNKRASGVPDRFSGSKSGNTASLTISGLQAEDEADYYCASYRSSDTNIVFGGGTKLTVLGGGGSGGGGSGGGGSEVQLVESGGGLVQPGGSLRLSCAASGFTFSSYAMSWVRQAPGKGLEWVSTINSGTGSPYYADSVKGRFTISRDNSKNTLYLQMNSLRAEDTAVYYCAKNFFDGSWFLGPPAMDYWGQGTLVTVSSHHHHHH",
    "binding result": "no binding"
  }
]
